Each record here notes measured growth.
- Tested on: LOX IMVI melanoma
- protocol summary: NCI-60 one-dose screen, 48 h (100 = growth as untreated, 0 = no growth, -100 = all killed)
- assay context: 10 µM unless noted
Compounds without any hit were thinned out: in the full panel of roughly 83,000, 20% have a hit.
measure name: growth (%)

O=c1onc(-c2ccccc2)c2ccccc12: 97.5
O=c1nc(NO)[nH]c(=O)n1Cc1ccccc1: 103
O/N=C/c1cccs1: 107
Cc1ccc(-c2nnc(COc3ccc(-c4nnc(N)s4)cc3)o2)cc1: 26
O=C(COc1ccc(/C=C2\CSc3ccccc3C2=O)cc1)c1ccc(Cl)cc1: 95
CNc1ccc(Br)cc1-c1n[nH]c(=O)[nH]c1=O: 98.6
